System: TTR
Assay: TTR editing in primary human hepatocytes electroporated with Spy Cas9 protein loaded with dgRNAs (Table 7)
Assay type: cell-based
Conditions: dgRNA electroporated with Spy Cas9 protein (RNP)
Listing: Avg % Insert of selected sequences
Give the value, in units of %, as a plain number.

GGCCGUGCAUGUGUUCAGAA (tested as dual guide RNA, chemistry not given here) [CR005304]; 5.53
CCUCCUCUGCCUUGCUGGAC (tested as dual guide RNA, chemistry not given here) [CR003336]; 38.43

Log: TTR, sequence UGUCUGUCUUCUCUCAUAGG (tested as dual guide RNA, chemistry not given here) [CR005307] , Avg % Insert = 5.20

Reading of Avg % Insert for AUACCAGUCCAGCAAGGCAG (tested as dual guide RNA, chemistry not given here) [CR003338] with TTR: 80.87

Record for GGAGUAGGGGCUCAGCAGGG (tested as dual guide RNA, chemistry not given here) [CR003382] under target or system TTR: Avg % Insert reported as 8.10

Avg % Insert value, target or system TTR, for GCUGCAUGGGCUCACAACUG (tested as dual guide RNA, chemistry not given here) [CR003361] : 3.73

Measured on TTR, UGCACGGCCACAUUGAUGGC (tested as dual guide RNA, chemistry not given here) [CR003349] has a documented Avg % Insert of 2.33

* * *

Tested on: TTR
Experiment: TTR editing in HUH7 cells transfected with Spy Cas9 mRNA and dgRNAs (Table 5)
Assay type: cell-based, human
Details: HUH7 cells co-transfected with Spy Cas9 mRNA (SEQ ID NO:2) and dgRNAs
Method: HUH7 cell line. The human hepatocellular carcinoma cell line HUH7 (Japanese Collection of Research Bioresources Cell Bank, Cat. JCRB0403) was cultured in DMEM media supplemented with 10% fetal bovine serum. […] To quantitatively determine the efficiency of editing at the target location in the genome, sequencing was utilized to identify the presence of insertions and deletions introduced by gene editing. […]
Assay readout: Avg % Insert (%)
Note: unit % is implicit; provide only the numeric part.

UUCUUUGGCAACUUACCCAG (tested as dual guide RNA, chemistry not given here) [CR003357]; 6.37
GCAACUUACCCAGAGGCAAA (tested as dual guide RNA, chemistry not given here) [CR003356]; 18.98
GUAUUCACAGCCAACGACUC (tested as dual guide RNA, chemistry not given here) [CR003373]; 3.31

For this sequence ( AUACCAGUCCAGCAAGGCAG (tested as dual guide RNA, chemistry not given here) [CR003338] ), measured Avg % Insert is 10.22

* * *

Reported Avg % Edit values for the following sequences.
System: TTR
Assay: TTR editing in HUH7 cells transfected with Spy Cas9 mRNA and dgRNAs (Table 5)
Assay type: cell-based, human
Conditions: HUH7 cells co-transfected with Spy Cas9 mRNA (SEQ ID NO:2) and dgRNAs
Write the answer as a number in %, unit excluded.

Worked cases, answers included:
ACACAAAUACCAGUCCAGCA (tested as dual guide RNA, chemistry not given here) [CR003339]; 79.97
GGCGGCAAUGGUGUAGCGGC (tested as dual guide RNA, chemistry not given here) [CR003378]; 40.73
AAAUAGACACCAAAUCUUAC (tested as dual guide RNA, chemistry not given here) [CR003366]; 69.98
GGGGCUCAGCAGGGCGGCAA (tested as dual guide RNA, chemistry not given here) [CR003381]; 99.70
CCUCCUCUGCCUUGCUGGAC (tested as dual guide RNA, chemistry not given here) [CR003336]; 30.05
CUUCUCUACACCCAGGGCAC (tested as dual guide RNA, chemistry not given here) [CR003342]; 45.14
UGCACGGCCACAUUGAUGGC (tested as dual guide RNA, chemistry not given here) [CR003349]; 14.14
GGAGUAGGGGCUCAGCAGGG (tested as dual guide RNA, chemistry not given here) [CR003382]; 34.47

// CCGUGGUGGAAUAGGAGUAG (tested as dual guide RNA, chemistry not given here) [CR003386] : Avg % Edit value = 69.40
